System: HOP-92 NSCLC
Assay: NCI-60 one-dose screen, 48 h (100 = growth as untreated, 0 = no growth, -100 = all killed)
Conditions: 10 µM unless noted
This is part of a sample that, as a whole, favours compounds with a hit. Of some 83,000 tested, about 20% had one in any assay.
Label 1 (yes) for high-side growth (at or above 80%) and 0 (no) for low-side growth (below it).

-- ask Does CCCCCc1nc2c(c3c1CCCC3)CCCC2 have a reported growth of at least 80%?
-- reply 0 (no)

-- ask Field entry: CC1CC(C(C)(C)C)C(=O)C(C(C)(C)C)C1 (stereo not given)
-- reply 1 (yes)

-- ask Field entry: COc1cccc(/C=C/C(=O)c2c(C)nc3ccccc3c2/C=C/c2ccc(C)cc2)c1OC
-- reply 0 (no)

-- ask Field entry: COc1cccc(C(=O)NCCNc2cc(-c3cn(-c4ccccc4)nc3-c3cccc(OC)c3)ccn2)c1
-- reply 0 (no)

-- ask Field entry: COc1cc(C2NC(=O)c3ccccc3N2)ccc1OCCCCCOc1c(OC)cc(C2=NOC(c3cc(OC)c(OC)c(OC)c3)C2)cc1OC (stereo not given)
-- reply 0 (no)

* * *

Test system: SNB-75 CNS
Assay: NCI-60 one-dose screen, 48 h
Details: 10 µM unless noted
About 83,000 compounds went through this panel and 20% of them were active in at least one assay; those are over-represented in the sample as a whole. The source made the active and inactive calls. How the source made its calls: active means growth percent below 10; inactive means the rest.
Mark one answer only. Choices: active, inactive

-- ask Check the results log: what was the call for COc1ccc2c(c1)C(=O)/C(=C/c1ccc(OCC(=O)Nc3nccs3)cc1)O2 ?
-- reply active

-- ask Field entry: C=CCn1c(C)nc2cc(Nc3nc(N4CCCC4)nc4ccccc34)ccc21
-- reply inactive

-- ask Field entry: O=[N+]([O-])c1ccc(N2c3ccncc3Sc3ccncc32)cc1
-- reply inactive

-- ask Field entry: COc1ccc(/C=N/C2=C(C#N)C(c3ccc(OC)cc3)c3ccc4ccccc4c3O2)cc1 (stereo not given)
-- reply inactive

-- ask Field entry: NC(=S)Nc1cccc(O)c1
-- reply inactive

-- ask Field entry: COc1ccc(-c2csc(C3=C(O)CN(CCCN4CCCC4=O)C3=N)n2)cc1OC
-- reply inactive

-- ask Field entry: Cc1ccc(Cc2cnc(NC(=O)c3ccc4noc(-c5ccccc5)c4c3)s2)cc1
-- reply inactive

-- ask Field entry: Cn1cc(-c2csc(-c3cccc(F)c3)n2)c2cccnc21
-- reply active

-- ask Field entry: O=C(Nc1ccccc1)Nc1cccc(Oc2nnc(Cl)c3ccccc23)c1
-- reply active

-- ask Field entry: O=C(NCCNc1cc(-c2cn(-c3ccccc3)nc2-c2cccc(O)c2)ccn1)Nc1ccccc1
-- reply inactive

-- ask Field entry: COc1ccc2occ(C3=C(c4c[nH]c5ccccc45)C(=O)N(O)C3=O)c2c1
-- reply inactive

-- ask Field entry: COc1ccc2c(c1)O/C(=C\c1cccc(OCC(=O)Nc3nc4ccccc4s3)c1)C2=O
-- reply inactive

-- ask Field entry: CCSC1=NC2C(N(CC)C(=O)N2CC)N1/N=C/C=C/c1ccccc1[N+](=O)[O-] (stereo not given)
-- reply inactive

-- ask Field entry: Cc1nn(-c2ccccc2)c2nc3c(c(-c4ccc(Cl)cc4)c12)CNC1(CCSCC1)N3
-- reply inactive

-- ask Field entry: CC(C)C(=O)Nc1n[nH]c2cc(-c3cccc(NS(=O)(=O)C4CC4)c3)ccc12
-- reply inactive

-- ask Field entry: COc1ccc2[nH]c(O)c(C(=Nc3ccc(N(C)C(=O)CN4CCN(C)CC4)cc3)c3ccccc3)c2c1
-- reply active

-- ask Field entry: N=C1C(c2nc(-c3ccc(Br)cc3)cs2)=C(O)CN1CC1CCCO1 (stereo not given)
-- reply inactive

-- ask Field entry: Fc1cnc(NC2CC2)nc1-c1cnc2ccc(N3CCOCC3)cn12
-- reply active

-- ask Field entry: O=C1NC(=Nc2ccc(Cl)cc2)S/C1=C\c1cn(-c2ccccc2)nc1-c1ccccc1
-- reply inactive

-- ask Field entry: Cn1c2c(c3ccc(Cl)c(Cl)c31)C(C#N)C1(CCNCC1)NC2=O (stereo not given)
-- reply inactive

-- ask Field entry: O=c1[nH]nc(-c2ccccc2)c2c(-c3ccccc3)onc12
-- reply active

-- ask Field entry: Cc1c(C(=O)N[C@@H](Cc2ccccc2)C(=O)C(=O)NCCc2ccccc2)[nH]c2ccccc2c1=O
-- reply inactive

-- ask Field entry: COc1cccc(-c2nc3sccn3c2-c2ccnc(NCCNS(=O)(=O)c3cccc(F)c3)c2)c1
-- reply inactive

-- ask Field entry: C[n+]1cc2c3c(ccc2c2ccc4cc5c(cc4c21)OCO5)OCO3
-- reply active

-- ask Field entry: C=C(C)[C@@H]1CC[C@]2(C)[C@H](CC=C3[C@@H]4CC(C)(C)CC[C@]4(C(N)=O)CC[C@]32C)[C@@]1(C)CCC#N
-- reply inactive

* * *

Tested on: NCI-H226 lung
Test: NCI-60 one-dose screen, 48 h (100 = growth as untreated, 0 = no growth, -100 = all killed)
Settings: 10 µM unless noted
About 83,000 compounds went through this panel and 20% of them were active in at least one assay; those are over-represented in the sample as a whole. The source made the active and inactive calls. The calls were made as follows: active = growth percent below 10; inactive = the rest.
property_measured: growth

-- ask Quick check: growth of COc1cc(C(=O)/C=C/c2c(C(F)(F)F)nc3sccn23)cc(OC)c1OC ?
-- reply 29.1% (inactive)

-- ask Field entry: O=C(c1ccc(Nc2nccc(NCCCCNc3ccnc4cc(Cl)ccc34)n2)cc1)N1CCCCC1
-- reply 91.3% (inactive)

-- ask Field entry: O=C(/C=C/c1ccco1)c1ccc(Nc2nc(Nc3ccc(F)cc3)nc(Nc3ccc(Cl)cc3)n2)cc1
-- reply 86% (inactive)

-- ask Field entry: CNC(=O)NCC1OC(n2cnc3c(NC(=O)Nc4ccccc4)ncnc32)C(O[Si](C)(C)C(C)(C)C)C1CC(=O)N(C)OC (centres undefined)
-- reply 40.6% (inactive)

* * *

Tested on: NCI/ADR-RES ovarian
Experiment: NCI-60 one-dose screen, 48 h (100 = growth as untreated, 0 = no growth, -100 = all killed)
Conditions: 10 µM unless noted
The panel holds about 83,000 compounds, 20% with a hit somewhere; the sample as a whole holds those more often. Activity calls are given as the source filed them. Rule for the calls: active = growth percent below 10; inactive = the rest.
property_measured: growth

-- ask Quick check: growth of Cc1cc(NCCCCNc2ccnc3cc(Cl)ccc23)nc(Nc2ccc(C(=O)N3CCCCC3)cc2)n1 ?
-- reply 47.5% (inactive)

-- ask Field entry: COc1ccc(-c2nc3c(c(=O)n2C(C)=O)C(c2ccc(Cl)cc2)c2sc4c(Cl)cccc4c2O3)cc1 (centres undefined)
-- reply -4.4% (active)

-- ask Field entry: Nc1nc(N)c2c(n1)NC(c1ccccc1)C1CCc3ccccc3C1=N2 (centres undefined)
-- reply 23.9% (inactive)

-- ask Field entry: COc1ccc2c(c1)C(=O)/C(=C/c1cccc(OCC(=O)Nc3nc(C)c(C)s3)c1)O2
-- reply -59% (active)

-- ask Field entry: Cc1ccc(Cc2cnc(NC(=O)c3ccc4noc(-c5ccccc5)c4c3)s2)cc1
-- reply 92.5% (inactive)

-- ask Field entry: O=C(O)CN1C(=O)CCC1=O
-- reply 112% (inactive)

-- ask Field entry: CC(CN1CCCCC1)C(=O)c1ccccc1 (centres undefined)
-- reply 108% (inactive)

-- ask Field entry: CCCCCCCCCOc1c(OC)cc(C2CC(=O)Nc3c2c(C)nn3-c2nc3ccccc3[nH]2)cc1OC (centres undefined)
-- reply -1.8% (active)

-- ask Field entry: COc1cccc(Nc2nccc(Nc3ccc4[nH]ncc4c3)n2)c1
-- reply -11.4% (active)

-- ask Field entry: Cc1nn(-c2ccccc2)c(Cl)c1/C=C(/NC(=O)c1ccccc1)c1nc2ccccc2[nH]1
-- reply 101% (inactive)

-- ask Field entry: COc1cccc(-c2nc3sccn3c2-c2ccnc(NCCNS(=O)(=O)c3ccc(C(F)(F)F)cc3)c2)c1
-- reply 19.9% (inactive)

-- ask Field entry: CCc1ccccc1NC(=O)/C(C#N)=C/c1ccc(OC)cc1
-- reply 97.8% (inactive)

-- ask Field entry: Cc1c(C(=O)OC(=NC2CCCCC2)NC2CCCCC2)sc2c1c(=O)nc1c(C#N)n[nH]n12
-- reply 106% (inactive)

-- ask Field entry: CC1(c2ccccc2)NC(=O)N(NC(=O)CSc2nc(-c3cccs3)nc3ccccc23)C1=O (centres undefined)
-- reply 87.9% (inactive)

* * *

Tested on: NCI-H460 lung
Assay: NCI-60 one-dose screen, 48 h (100 = growth as untreated, 0 = no growth, -100 = all killed)
Details: 10 µM unless noted
About 83,000 compounds went through this panel and 20% of them were active in at least one assay; those are over-represented in the sample as a whole.
property_measured: growth (%)
Expressed in %, but write only the number.

-- ask Quick check: growth of COc1cc(N2C(=O)c3nccnc3C2=O)cc(OC)c1OC ?
-- reply 111

-- ask Field entry: COC(=O)c1c2c(c(C)[n+]([O-])c1C)C(=O)C(NCc1ccc(F)c(Cl)c1)=CC2=O
-- reply 7.33

-- ask Field entry: CCCCCCCCCCCCCCCCCCOc1ccccc1CC(=O)OCCC[N+](C)(C)C
-- reply 80.1

-- ask Field entry: COc1ccc2[nH]c(O)c(/C=c3/cc4c(c(-c5cc(OC)c(OC)c(OC)c5)n3)=Nc3ccccc3-4)c2c1
-- reply 71.6

-- ask Field entry: CCN1C(=O)N(CC)C2C1NN=c1s/c(=C\c3cccs3)c(=O)n12 (stereo not drawn)
-- reply 8.1

-- ask Field entry: CC(C)C(NC(=O)C1(NC(=O)OCc2ccccc2)CCCC1)C(=O)O (stereo not drawn)
-- reply 100

-- ask Field entry: COc1cc2ncn3c(=O)c4c5c(sc4nc3c2cc1OC)CCCC5
-- reply 100

-- ask Field entry: Cc1cccc(Cc2cnc(NC(=O)c3ccc4nnsc4c3)s2)c1
-- reply 114

Provenance of the data: PubChem BioAssay (NCI)
